molecular target: EGFRvIII expressed on cells (F98-npEGFRvIII, NCI-H522-EGFRvIII, U87-KO-EGFRvIII) (human); assay: flow cytometry, EGFRvIII expressing cell line against non-expressing cell lines
measured.quantity: fold MFI over non-expressing cell lines

Some binders with recorded fold MFI over non-expressing cell lines:
Annotate the binder 34E7 (antibody, V domains shown) VH: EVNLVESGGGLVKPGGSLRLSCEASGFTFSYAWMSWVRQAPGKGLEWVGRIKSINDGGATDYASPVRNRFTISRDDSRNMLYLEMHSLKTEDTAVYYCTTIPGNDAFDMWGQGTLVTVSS VL: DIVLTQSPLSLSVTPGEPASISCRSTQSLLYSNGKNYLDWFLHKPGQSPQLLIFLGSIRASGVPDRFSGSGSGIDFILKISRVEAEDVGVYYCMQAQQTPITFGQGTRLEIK with its measured fold MFI over non-expressing cell lines.
≥ 10 fold

Annotate the binder 49B11 (antibody, V domains shown) VH: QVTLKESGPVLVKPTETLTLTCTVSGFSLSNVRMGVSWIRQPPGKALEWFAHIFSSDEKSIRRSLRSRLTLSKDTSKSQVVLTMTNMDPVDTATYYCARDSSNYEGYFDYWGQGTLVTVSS VL: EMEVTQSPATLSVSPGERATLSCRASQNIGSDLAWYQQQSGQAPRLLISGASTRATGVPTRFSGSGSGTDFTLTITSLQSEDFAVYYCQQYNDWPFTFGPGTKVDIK with its measured fold MFI over non-expressing cell lines.
≥ 10 fold

***
Annotate the binder 46E10 (antibody, V domains shown) VH: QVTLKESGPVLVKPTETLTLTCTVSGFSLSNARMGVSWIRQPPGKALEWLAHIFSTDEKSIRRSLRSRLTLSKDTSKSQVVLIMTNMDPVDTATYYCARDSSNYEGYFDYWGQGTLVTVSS VL: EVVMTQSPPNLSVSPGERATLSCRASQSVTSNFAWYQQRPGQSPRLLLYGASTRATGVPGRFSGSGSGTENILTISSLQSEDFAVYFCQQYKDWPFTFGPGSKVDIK with its measured fold MFI over non-expressing cell lines.
≥ 10 fold
